experiment: Solubility in liquid paraffin (mineral oil) at 23
Assay type: physicochemical
condition_label: organic solvent or mixture
reported_property: solubility

{"columns": ["compound", "result"],
 "data": [
  ["CC(CCOC(=O)C=Cc1ccc(N(C)C)cc1)CC(C)(C)C (stereo not drawn) [(d)]", "29 mg/mL"]
]}

Okay, here is my list. What is solubility for each of these?
1. CCCCCCCCOC(=O)C=Cc1ccc(N(C)C)cc1 [(c), 1-octyl p-dimethylaminocinnamate, reference compound]
2. CC(C)CCOC(=O)C=Cc1ccc(N(C)C)cc1 [(a), 3-methylbutyl-p-dimethylaminocinnamate]
3. CCCCCCCCCCOC(=O)C=Cc1ccc(N(C)C)cc1 [(f), 1-decyl p-dimethylaminocinnamate]
4. CCCCCCCOC(=O)C=Cc1ccc(N(C)C)cc1 [(b), 1-heptyl p-dimethylaminocinnamate]
5. CC1CC(OC(=O)C=Cc2ccc(N(C)C)cc2)CC(C)(C)C1 (stereo not drawn) [(e)]

stdout:
1: 25 mg/mL; 2: 24 mg/mL; 3: 21 mg/mL; 4: 21 mg/mL; 5: 12 mg/mL

----------
experiment: Ultra-violet absorption (absorptivity, absorption maximum)
Type: physicochemical
condition_label: c in g/l, path length b in centimeters
For each entry below, report its Absorptivity value.
Respond with the figure and its unit, in that order.

{"columns": ["compound", "Absorptivity"],
 "data": [
  ["CCCCCCCCOC(=O)C=Cc1ccc(N(C)C)cc1 [(c), 1-octyl p-dimethylaminocinnamate, reference compound]", "89 L/g/cm"],
  ["CCCCC(CC)COC(=O)C=Cc1ccc(N(C)C)cc1 (stereo not shown) [Example 2-Ethylhexyl, 2-Ethylhexyl 4-dimethylaminocinnamate]", "101 L/g/cm"],
  ["CCCCCCC(C)OC(=O)C=Cc1ccc(N(C)C)cc1 (stereo not shown) [Example 2-Octyl, 2-octyl 4-dimethylaminocinnamate]", "95 L/g/cm"]
]}

Shift focus to the following entry.
Sample CCOC(=O)C=Cc1ccc(N(C)C)cc1 [(2), ethyl p-dimethylaminocinnamate, reference compound] ; Absorptivity observed: 125 L/g/cm
